abundance fitness values for the variants below.
B1: Pre-mRNA-processing factor 40 homolog B, residues 274 to 332; numbered along this chain, Q6NWY9 (parent)
chain: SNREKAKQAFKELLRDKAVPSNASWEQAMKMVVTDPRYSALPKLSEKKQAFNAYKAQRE

- Variants of: B1
- test_details: abundance fitness (aPCA) (normalised: wild type 0, dead -1); higher = more abundant; growth selection in yeast, the domain comes from the species named
- condition_info: Homo sapiens
No unit in the answer, only the number.

[[record]]
variant_string = "N22H"
endpoint_value = -0.179


The variant identified as E59S registered its abundance fitness at -0.397

The variant identified as K7S registered its abundance fitness at -0.005

The variant identified as V32W registered its abundance fitness at -0.732

The variant identified as Q57I registered its abundance fitness at -0.565

The variant identified as Q8L registered its abundance fitness at -0.108

The variant identified as R15P registered its abundance fitness at -0.593

The variant identified as N52F registered its abundance fitness at -0.901

The variant identified as S21Y registered its abundance fitness at 0.005

The variant identified as R58M registered its abundance fitness at 0.184

The variant identified as A40T registered its abundance fitness at -0.312

The variant identified as E12C registered its abundance fitness at -0.602

The variant identified as A56V registered its abundance fitness at -0.076

The variant identified as L44Q registered its abundance fitness at -0.219

The variant identified as S1P registered its abundance fitness at -0.478

The variant identified as F10K registered its abundance fitness at -0.318
